Data origin: PubChem BioAssay

- protocol-notes: inhibition of 3D7 malaria parasite growth – strain 3D7 (AID 2306);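 further: 0% = DMSO wells and 100% = chloroquine plus artemisinin control wells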
- test-context: P. falciparum 3D7 erythrocytic growth, LDH absorbance, 72 h; at 2 µM; hits give high values
endpoint-name: growth inhibition (%)
Quick reminder: number only, in %, skip the unit.

Please review the following examples before continuing.
{"compound": "CCN(c1ccc(O)c(CN2CCCCC2)c1)c1ccc([N+](=O)[O-])cn1", "growth inhibition / %": 94}
{"compound": "Cc1ccc(NCC(=O)Nc2ccc(F)c(Cl)c2)cc1S(=O)(=O)N1CCOCC1", "growth inhibition / %": 98}
{"compound": "COc1cc(NC(=O)/C=C/c2cc(F)cc(F)c2F)cc(OCCN2CCC3(CC2)OCCO3)c1", "growth inhibition / %": 98}
{"compound": "CCn1c(-c2nonc2N)nc2c(-c3cccc(NC(=O)Nc4ccccc4OC)c3)ncc(OCCCN)c21", "growth inhibition / %": 92}
{"compound": "N#Cc1ccc2c(c1)CCN(CCC1CCC(NC(=O)Nc3ccncc3)CC1)C2 (centres undefined)", "growth inhibition / %": 85}
{"compound": "CCc1c(CCNC/C=C/C=C/CNCCc2ccc(OC)c(OC)c2CC)ccc(OC)c1OC", "growth inhibition / %": 100}
{"compound": "CS(=O)(=O)c1ccc2c(c1)CCN(CCC1CCC(NC(=O)C(=Cc3cccc(C#N)c3)c3ccc(-c4ccccc4)cc3)CC1)CC2 (centres undefined)", "growth inhibition / %": 99}
{"compound": "COc1ccc(C2c3ccccc3-c3nc(N)nc(N)c3C2C)cc1 (centres undefined)", "growth inhibition / %": 97}

Recall and state the measured growth inhibition for `O=C(Nc1cccc(-c2csc(-c3ccccc3)n2)c1)c1cccs1` .
89

Recall and state the measured growth inhibition for `Nc1ccncc1C(=O)NCCCCN1CCN(c2nsc3ccccc23)CC1` .
101

----------
- protocol-notes: viability rescue of complex I mutant cybrids, primary screen, cell-based, galactose medium, ATP luminescence (AID 1645843);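 further: positive z means more ATP and so rescue of galactose-driven cybrid death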
- test-context: complex I mutant cybrid cells, 72 h, hits give high values
Quick rule for you: z-score at -0.3 or higher means 1, lower means -1.

{"molecule": "O=c1c(O)c(-c2ccc(O)cc2)oc2cc(O)cc(O)c12", "class-name": -1}
{"molecule": "CN(CCOc1ccc(-c2ccc3c(c2)OCO3)cc1C(C)(C)C)CC(=O)O", "class-name": 1}
{"molecule": "Cn1c(=O)c(-c2c(Cl)cccc2Cl)cc2cnc(Nc3ccc(N4CCOCC4)cc3)nc21", "class-name": -1}
{"molecule": "CC1(C)CCC(C)(C)c2cc(C(=O)Nc3ccc(C(=O)O)cc3)ccc21", "class-name": 1}

Item COc1ccnc(CS(=O)c2nc3cc(OC(F)F)ccc3[nH]2)c1OC (stereo not given) with z-score of -0.3 or above?
1

Item `O=C(O)C1=CC(=C(c2ccc(O)c(C(=O)O)c2)c2ccc(O)c(C(=O)O)c2)C=CC1=O` with z-score of -0.3 or above?
1

Item CCOC(=O)C1(CCCCCCOc2ccc(Cl)cc2)CO1 (stereo not given) with z-score of -0.3 or above?
1

Item `CO[C@H]1/C=C/O[C@@]2(C)Oc3c(C)c(O)c4c(O)c(c(C=NN5CCN(C)CC5)c(O)c4c3C2=O)NC(=O)/C(C)=C\C=C\[C@H](C)[C@H](O)[C@@H](C)[C@@H](O)[C@@H](C)[C@H](OC(C)=O)[C@@H]1C` with z-score of -0.3 or above?
-1

Item `O=C1CN(N=Cc2ccc([N+](=O)[O-])o2)C(=O)N1` with z-score of -0.3 or above?
-1

Item `CN(C)CCCSC(=N)N` with z-score of -0.3 or above?
-1

Item `Clc1ccc(-c2nc3sccn3c2/C=N/OCc2ccc(Cl)c(Cl)c2)cc1` with z-score of -0.3 or above?
1

----------
- Tested on: F380Y
- protocol-notes: modulators of BK channel variants, profiling panel, selectivity assay, cell-based, U2OS BacMam, thallium flux, beta subunits (AID 1259406);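 further: initial slope of Thallos dye fluorescence rise after thallium is added; log ratio against the mean of 0.3% DMSO vehicle wells on the same plate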
- test-context: at 30 µM
Active and inactive are the calls of the source.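 How the source made its calls: active means thallium flux through the channel raised or lowered by more than 3 SD from vehicle-only wells, actives on both sides; inactive means the rest.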
Returns: one label drawn from y = active, n = inactive

Please review the following examples before continuing.
{"compound": "CC1c2cccc(O)c2C(O)=C2C(=O)C3(O)C(O)=C(C(N)=O)C(=O)C(N(C)C)C3C(O)C21 (stereo not drawn)", "class-name": "n"}
{"compound": "O=C1C(=Cc2cc(-c3ccccc3)c(C(F)(F)F)s2)CSc2ccc(Cl)cc21", "class-name": "n"}
{"compound": "CC(=O)CSc1nc(SCC(C)=O)c2cnc(N3CCCC3)nc2n1", "class-name": "n"}

Can you look up the reported call for `CO[C@H]1C=CO[C@@]2(C)Oc3c(C)c(O)c4c(O)c(c(C=NN5CCN(C6CCCC6)CC5)c(O)c4c3C2=O)NC(=O)C(C)=CC=C[C@H](C)[C@H](O)[C@@H](C)[C@@H](O)[C@@H](C)[C@H](OC(C)=O)[C@@H]1C` for me?
y

Can you look up the reported call for `CON=C(C(=O)N[C@@H]1C(=O)N2C(C(=O)O)=C(COC(N)=O)CS[C@H]12)c1ccco1` for me?
n

Can you look up the reported call for `CCOC(=O)c1ccc(OCC#Cc2ccc(C(F)(F)F)cn2)cc1` for me?
n

Can you look up the reported call for `O=C1CN2Cc3c(ccc(Cl)c3Cl)N=C2N1` for me?
n

Can you look up the reported call for `FC(F)(F)c1cc(C=Cc2noc(-c3ccc(CN4CCCC4)cc3)n2)cc(C(F)(F)F)c1` for me?
n

----------
- protocol-notes: fluorescence interference in NS3h assay format, artefact control for HCV NS3 helicase inhibitor project, biochemical, NIH Clinical Collection (AID 743272);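 further: HCV NS3 helicase with a Cy5 labelled single stranded DNA probe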
- test-context: fluorescence interference counterscreen, hits give low values
// values below are reported fluorescence ratio
Give the figure only, with no unit attached.

Please review the following examples before continuing.
{"compound": "COc1cc(/C=C/c2ccc(O)cc2)cc(OC)c1", "observed-measurement": 0.99}
{"compound": "CON=C(C(=O)N[C@@H]1C(=O)N2C(C(=O)O)=C(COC(N)=O)CS[C@H]12)c1ccco1", "observed-measurement": 1}
{"compound": "CC1c2cccc(O)c2C(O)=C2C(=O)[C@]3(O)C(O)=C(C(N)=O)C(=O)[C@@H](N(C)C)[C@@H]3C[C@@H]21 (stereo partly specified)", "observed-measurement": 0.95}
{"compound": "COc1ccc2[nH]c(S(=O)Cc3ncc(C)c(OC)c3C)nc2c1 (stereo unspecified)", "observed-measurement": 1.01}
{"compound": "Nc1nc(Cl)nc2c1ncn2[C@@H]1O[C@H](CO)[C@@H](O)[C@H]1O", "observed-measurement": 1}

Recall and state the measured fluorescence ratio for `Cc1cc2c(s1)Nc1ccccc1N=C2N1CCN(C)CC1` .
1

Recall and state the measured fluorescence ratio for CC(C)(S)C(N)C(=O)O (stereo unspecified) .
0.98

Recall and state the measured fluorescence ratio for `COc1ccc(C[C@H](C)NC[C@@H](O)c2ccc(O)c(NC=O)c2)cc1` .
0.98

Recall and state the measured fluorescence ratio for O=C(O[C@H]1[C@H](Oc2ccccc2COC(=O)C2(O)C=CCCC2=O)O[C@H](CO)[C@@H](O)[C@@H]1O)c1ccccc1 (stereo partly specified) .
0.99

Recall and state the measured fluorescence ratio for `O=C(c1ccc(OCCN2CCCCC2)cc1)c1c(-c2ccc(O)cc2)sc2cc(O)ccc12` .
0.8

Recall and state the measured fluorescence ratio for CN(C)C1C(=O)C(C(N)=O)=C(O)C2(O)C(=O)C3=C(O)c4c(O)ccc(Cl)c4C(O)C3CC12 (stereo unspecified) .
0.84

Recall and state the measured fluorescence ratio for `C=C1/C(=C\C=C2/CCC[C@]3(C)[C@@H]([C@H](C)CCCC(C)(C)O)CC[C@@H]23)C[C@@H](O)C[C@@H]1O` .
0.91

Recall and state the measured fluorescence ratio for OC[C@H]1O[C@@H](n2cnc3c(N[C@H]4CCC[C@@H]4O)ncnc32)[C@@H](O)C1O (stereo partly specified) .
0.98

Recall and state the measured fluorescence ratio for `CC(=O)CCCCn1cnc2c1c(=O)n(C)c(=O)n2C` .
0.95

Recall and state the measured fluorescence ratio for `CC(=O)O[C@@]12CO[C@@H]1C[C@H](O)[C@@]1(C)C(=O)[C@H](O)C3=C(C)[C@@H](OC(=O)[C@H](O)[C@@H](NC(=O)OC(C)(C)C)c4ccccc4)C[C@](O)([C@@H](OC(=O)c4ccccc4)[C@H]21)C3(C)C` .
0.93

----------
// values below are reported log fold change Tl+ flux
- Test system: F380Y/beta1
- protocol-notes: modulators of BK channel variants, profiling panel, selectivity assay, cell-based, U2OS BacMam, thallium flux, beta subunits (AID 1259406);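 further: initial slope of Thallos dye fluorescence rise after thallium is added; log ratio against the mean of 0.3% DMSO vehicle wells on the same plate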
- test-context: at 30 µM
The source made the active and inactive calls.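 Rule for the calls: active = thallium flux through the channel raised or lowered by more than 3 SD from vehicle-only wells, actives on both sides; inactive = the rest.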

{"compound": "Cc1nc(-c2ccc(C(F)(F)F)cc2)sc1CO", "log fold change Tl+ flux": "0.197 (active)"}
{"compound": "O=S(=O)(Nc1cc(Cl)c(-n2cccc2)cc1Oc1ccc(Cl)cc1)c1ccc(Cl)cc1", "log fold change Tl+ flux": "-0.0223 (inactive)"}
{"compound": "CN(CCO)CC(O)Cn1cnc2c1c(=O)n(C)c(=O)n2C (stereo not given) (tested in a mixture with another compound)", "log fold change Tl+ flux": "0.0124 (inactive)"}
{"compound": "CN1CCN(CC(=O)Nc2ccccc2Oc2ccccc2)CC1", "log fold change Tl+ flux": "0.0196 (inactive)"}

Recall and state the measured log fold change Tl+ flux for `O=C1CN(N=Cc2ccc([N+](=O)[O-])o2)C(=O)N1` .
-0.025 (inactive)

Recall and state the measured log fold change Tl+ flux for `CCCCCN=C(N)NN=Cc1c[nH]c2ccc(OC)cc12` .
0.869 (active)

Recall and state the measured log fold change Tl+ flux for CC1CC2C3CCC4=CC(=O)C=CC4(C)[C@@]3(Cl)C(O)CC2(C)C1(O)C(=O)CO (stereo not given in full) .
0.0975 (active)

Recall and state the measured log fold change Tl+ flux for `Cc1onc(-c2ccccc2)c1N1C(=O)CCN(C(C)C)C1=O` .
-0.00917 (inactive)

Recall and state the measured log fold change Tl+ flux for `C=C1/C(=C\C=C2/CCC[C@]3(C)[C@@H]([C@H](C)/C=C/[C@@H](O)C4CC4)CC[C@@H]23)C[C@@H](O)C[C@@H]1O` .
0.217 (active)

Recall and state the measured log fold change Tl+ flux for `O=C(Nc1ccc(F)cc1)N1CCN(Cc2ccccc2)CC1` .
0.00516 (inactive)
